- Measurement protocol: In vivo pharmacokinetic studies of dihydropyridines given orally with water, grapefruit juice or orange juice (plasma concentration, GC analysis)
- Design: species or system human (healthy subjects, hypertensive patients)
- Test conditions: human, plasma, po, felodipine ER tablets, healthy subjects, n = 9, grapefruit juice; mean

>  <Compound>
CCOC(=O)C1=C(C)NC(C)=C(C(=O)OC)C1c1cccc(Cl)c1Cl (stereo not shown)

>  <Tmax (h)>
3.2

$$$$

* * *

- Measurement protocol: In vivo pharmacokinetic studies of dihydropyridines given orally with water, grapefruit juice or orange juice (plasma concentration, GC analysis)
- Design: species or system human (healthy subjects, hypertensive patients)
- Test conditions: human, plasma, po, felodipine plain tablets, patients, n = 6, grapefruit juice; mean

>  <Compound>
CCOC(=O)C1=C(C)NC(C)=C(C(=O)OC)C1c1cccc(Cl)c1Cl (stereo not shown)

>  <Cmax>
28.7 nM

$$$$

* * *

- Measurement protocol: In vivo pharmacokinetic studies of dihydropyridines given orally with water, grapefruit juice or orange juice (plasma concentration, GC analysis)
- Design: species or system human (healthy subjects, hypertensive patients)
- Test conditions: human, plasma, po, felodipine plain tablets, healthy subjects, n = 9, water; mean

>  <Molecule>
CCOC(=O)C1=C(C)NC(C)=C(C(=O)OC)C1c1cccc(Cl)c1Cl (stereo not shown)

>  <Tmax (h)>
1.3

$$$$

* * *

- Measurement protocol: In vivo pharmacokinetic studies of dihydropyridines given orally with water, grapefruit juice or orange juice (plasma concentration, GC analysis)
- Design: species or system human (healthy subjects, hypertensive patients)
- Test conditions: human, plasma, po, felodipine plain tablets, patients, n = 6, water; mean; zero to infinity
- Experimental: Hypertensive patients and healthy volunteers were given commercially available formulations of dihydropyridines in the morning after an overnight fast. The tablets were taken either with water, orange juice, or, as a source of flavonoids, 200 ml grapefruit juice. […] The maximum plasma concentration, Cmax, and the corresponding time to reach peak concentration, tmax, were recorded from the individual plasma concentration time curves of the dihydropyridine and its first metabolite. […]

>  <Compound>
CCOC(=O)C1=C(C)NC(C)=C(C(=O)OC)C1c1cccc(Cl)c1Cl (stereo not shown) [Felodipine]

>  <AUC(0-inf) / µM·h>
0.0484

$$$$

* * *

- Measurement protocol: In vivo pharmacokinetic studies of dihydropyridines given orally with water, grapefruit juice or orange juice (plasma concentration, GC analysis)
- Parameters: species or system human (healthy subjects, hypertensive patients)
- Test conditions: human, plasma, po, 10 mg, nitrendipine 10 mg tablets, healthy subjects, n = 3, grapefruit juice; mean; zero to infinity

>  <Molecule>
CCOC(=O)C1=C(C)NC(C)=C(C(=O)OC)C1c1cccc([N+](=O)[O-])c1 (stereo not shown) [Nitrendipine]

>  <AUC(0-inf)>
0.035 µM·h

$$$$

* * *

- Measurement protocol: In vivo pharmacokinetic studies of dihydropyridines given orally with water, grapefruit juice or orange juice (plasma concentration, GC analysis)
- Parameters: species or system human (healthy subjects, hypertensive patients)
- Test conditions: human, plasma, po, 10 mg, nitrendipine 10 mg tablets, healthy subjects, n = 3, water; mean

>  <Molecule>
CCOC(=O)C1=C(C)NC(C)=C(C(=O)OC)C1c1cccc([N+](=O)[O-])c1 (stereo not shown)

>  <Cmax [nM]>
3.7

$$$$

* * *

- Measurement protocol: In vivo pharmacokinetic studies of dihydropyridines given orally with water, grapefruit juice or orange juice (plasma concentration, GC analysis)
- Parameters: species or system human (healthy subjects, hypertensive patients)
- Test conditions: human, plasma, po, felodipine plain tablets, healthy subjects, n = 9, grapefruit juice; mean

>  <Compound>
CCOC(=O)C1=C(C)NC(C)=C(C(=O)OC)C1c1cccc(Cl)c1Cl (stereo not shown)

>  <Tmax>
2.1 h

$$$$
